Target: GlcNAc(b1-2)Man(a1-3)[GlcNAc(b1-4)][GlcNAc(b1-2)Man(a1-6)]Man(b1-4)GlcNAc(b1-4)GlcNAc
Test: glycan array binding signal (z-score within array); higher = stronger binding
Settings: glycan notation: IUPAC condensed, linker removed
Shown is part of a subset that was picked to be rich in the strongest signals.
REPORTED ENDPOINT: glycan array binding signal (z-score)
Numbers only.

q: Can you look up the measured glycan array binding signal (z-score) of LSECtin (Homo sapiens), Q6UXB4 (protein) MDTTRYSKWGGSSEEVPGGPWGRWVHWSRRPLFLALAVLVTTVLWAVILSILLSKASTERAALLDGHDLLRTNASKQTAALGALKEEVGDCHSCCSGTQAQLQTTRAELGEAQAKLMEQESALRELRERVTQGLAEAGRGREDVRTELFRALEAVRLQNNSCEPCPTSWLSFEGSCYFFSVPKTTWAAAQDHCADASAHLVIVGGLDEQGFLTRNTRGRGYWLGLRAVRHLGKVQGYQWVDGVSLSFSHWNQGEPNDAWGRENCVMMLHTGLWNDAPCDSEKDGWICEKRHNC for me?
a: 6.57

Values were extracted from the supplement of paper PMC8728848.
